FYI, the data here is from the supplement of paper PMC11208160.

method: recombinant barcode read abundance after kanamycin selection (control-corrected) (log10(CPM+1)); higher = more efficient recombination; sequences stand for … in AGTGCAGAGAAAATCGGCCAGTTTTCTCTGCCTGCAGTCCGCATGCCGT…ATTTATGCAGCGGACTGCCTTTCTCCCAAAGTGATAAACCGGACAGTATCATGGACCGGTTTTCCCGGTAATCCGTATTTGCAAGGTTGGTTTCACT; site = the 11-nt target
readout: recombinant barcode read abundance (log10)

{"residueCodes": "GCGCGACCTTGGGTTCTAACCTGTTGCTTCT [GCGCGACCTAA_LTGcore_CT_RTGcore_AG] (site GCGCGACCTAA) (LTG core: CT, RTG core: AG)", "number": 0.345}
{"residueCodes": "TAAGAATTATGGGTTCTAACCTGTTGCCTAG [TAAGAATCTAG_LTGcore_TA_RTGcore_CT] (site TAAGAATCTAG) (LTG core: TA, RTG core: CT)", "number": 0}
{"residueCodes": "AGGCGGTCTTGGGTTCTAACCTGTTGCTTCG [AGGCGGTCTAA_LTGcore_CT_RTGcore_CG] (site AGGCGGTCTAA) (LTG core: CT, RTG core: CG)", "number": 0.117}
{"residueCodes": "ATGCTTTTGTGGGTTCTAACCTGTTGCCTCA [ATGCTTTCTAG_LTGcore_TG_RTGcore_TG] (site ATGCTTTCTAG) (LTG core: TG, RTG core: TG)", "number": 0.313}
